system: ACHN renal; experiment: NCI tumour cell line growth inhibition, 48 h
REPORTED_METRIC: TGI

Worked cases, answers included:
COMPOUND	REPORTED_METRIC	RESULT
CC(=Nc1ccc(S(N)(=O)=O)cc1)c1c(O)[nH]c2ccccc12	TGI	> 25 µM
CCOC(=O)c1ccc(Nc2nc3ccc(C(F)(F)F)cc3nc2C(=O)OCC)cc1	TGI	> 100 µM

Dear reader, for each entry below, please note its TGI.
1. CC1(O)CCn2c(=O)c3cc4ccccc4cc3c(=O)n2C1O (stereo not given)
2. C=CC1=C(C)C2=NC1=CC1=NC(=CC3=C(C)C4=C(O)[C@H](C(=O)OC)C(=C5NC(=C2)[C@@H](C)[C@@H]5CCC(=O)O)C4=N3)C(CC)=C1C
3. Cc1cccc(C)c1N1C(=O)C(=O)C(c2nc3ccccc3s2)/C(=N/NC(=O)NN)C1=O (stereo not given)

["> 100 µM", "7.21 µM", "> 100 µM"]

###

test system: DLD-1 colon; assay: NCI tumour cell line growth inhibition, 48 h
REPORTED_METRIC: TGI

Here's what some known entries look like.
COMPOUND	TEST_SYSTEM	RESULT
O=C1C2=C(CCC2)Nc2cccc3ncn1c23	DLD-1 colon	> 100 µM
Cn1c(=O)nc2n(-c3ccc(Cl)c(C(F)(F)F)c3)c3ccccc3nc-2c1=O	DLD-1 colon	> 100 µM

Provide TGI, system DLD-1 colon, entry COC(=O)C1C(=O)N(CCc2c[nH]c3ccccc23)C[C@@H]2CCC(=O)C[C@H]12 (stereo partly drawn)
> 100 µM

###

system: OVCAR-5 ovarian; experiment: NCI tumour cell line growth inhibition, 48 h
REPORTED_METRIC: TGI

The cases that follow already have their TGI on record.
COMPOUND	RESULT
O=C1C(C(O)(C(F)(F)F)C(F)(F)F)CCC1C(O)(C(F)(F)F)C(F)(F)F (stereo not given)	> 100 µM
Cc1cccc(N(CC(=O)O)S(=O)(=O)c2ccccc2)c1	> 100 µM
O=[N+]([O-])/C(Cl)=C(\NCCN/C(C(Cl)=C(Cl)Cl)=C(/Cl)[N+](=O)[O-])C(Cl)=C(Cl)Cl	> 100 µM

// for each compound in input: emit TGI
1. O=C1c2cccc(O)c2C(=O)c2c(O)cc(CO)cc21
2. Cc1cc(C)n(C2=NS(=O)(=O)c3ccccc3N2C)n1
3. CC1(C)N=C2C(=O)c3c([nH]c4ccccc34)[C@]3(C)CCC1CC23 (stereo not given in full)
4. COc1nc2c(N3CCCC3)nc(N3CCNCC3)nc2nc1NCc1ccccc1
5. O=[N+]([O-])c1ccc(-c2cc3c(Nc4ccc(Cl)c(C(F)(F)F)c4)ncnc3s2)cc1

1. > 100 µM
2. > 100 µM
3. > 6.25 µM
4. 8.04 µM
5. > 100 µM

Respectfully, I request TGI for each entry included below.
1. CCOC(=O)C1CCC(=O)N1C(=O)c1ccccc1Cl (stereo not given)
2. CCNc1ncnc2sc(SCc3ccccc3)nc12

1: > 100 µM; 2: > 100 µM

###

system: UACC-257 melanoma; assay: NCI tumour cell line growth inhibition, 48 h
Please provide measured GI50 for the entries that follow.

MOLECULE	GI50
COc1ccc(-n2nc(C)c3c(Nc4ccc(NC(=O)Nc5ccc(Cl)c(C(F)(F)F)c5)cc4)ncnc32)cc1	1.88 µM

State the recorded GI50 for every item in the following list.
1. O=C(NCCN1CCNCC1)c1ccc(Nc2nc3ccccc3c3occc23)cc1
2. Cc1cc2c(cc1Cl)S/C(=C/C(=O)O)C(Nc1cccc3nsnc13)=NS2(=O)=O
3. Nc1cc(-c2ccc(Cl)cc2)nn1-c1nnc(/C=C/c2ccco2)c(=O)[nH]1
4. CC1c2ccccc2N=C2SC(=S)N3CCN=C3N21 (stereo not given)

1. 17 µM
2. > 57.9 µM
3. 6.55 µM
4. > 100 µM
